# Tested on: DU-145
# Experiment Description: NCI tumour cell line growth inhibition, 48 h
Activity calls are given as the source filed them. No stated cut-off is given here; in the data, active = GI50 up to about 1.1 µM and inactive = higher.
Result Type: GI50

1. CCCCCCOc1ccc(C(=O)NOCc2ccccc2)cc1	> 100 µM (inactive)
2. CC(=N\N)/C(C)=N/N=C(C)/C(C)=N/N=C(C)/C(C)=N/N	> 100 µM (inactive)
3. C=C1C(OC2O[C@@H]3O[C@@]4(C)CC[C@H]5[C@H](C)CC[C@@H](C2=C)[C@@]35O4)O[C@@H]2O[C@@]3(C)CC[C@H]4[C@H](C)CC[C@@H]1[C@@]24O3 (some centres undefined)	> 50 µM (inactive)
4. O=c1[nH]/c(=C/c2ccc(OCc3ccccc3)cn2)c(=O)[nH]/c1=C/c1ccc([N+](=O)[O-])cc1	> 100 µM (inactive)
5. COc1ccc2oc(=O)c(-c3nc4ccccc4o3)cc2c1	> 100 µM (inactive)
6. O=C(O)c1ccc2[nH]c(=O)oc2c1	> 100 µM (inactive)
7. O=C(CC(C(=O)c1ccsc1)c1ccccc1)c1cccs1 (centres undefined)	> 100 µM (inactive)
8. COC(=O)C(Cc1c[nH]c2ccccc12)NP(=O)(O)OCC1OC(n2cc(I)c(=O)[nH]c2=O)CC1O (centres undefined)	> 100 µM (inactive)
9. COP(=O)(OC)C(O)/C=C/c1ccco1 (centres undefined)	> 100 µM (inactive)
10. O=P1(Oc2ccc(Cl)cc2)OCCS1 (centres undefined)	> 100 µM (inactive)
11. N=C1N(/N=C/c2ccccn2)/C(=N\c2ccccc2)C(=S)N1c1ccccc1	3.31 µM (inactive)
12. COc1ccc(N2CCN(c3ccc4c(c3)NCC(=O)N4)CC2)cc1	> 100 µM (inactive)
13. Nc1nc(Cl)cc(Nc2cc(Cl)cc(Cl)c2)n1	26.1 µM (inactive)
14. CC12CCC(C/C1=N\NC(N)=O)C2(C)C (centres undefined)	> 100 µM (inactive)
15. [BH3-][P+]1(CC[P@@+]([BH3-])(c2ccccc2)c2ccccc2OC)[C@@H](C)[C@@H](O)[C@H](O)[C@@H]1C (some centres undefined)	17.3 µM (inactive)
16. O=C(CC(C(=O)c1ccco1)c1ccsc1)c1ccco1 (centres undefined)	> 100 µM (inactive)
17. CC(=O)NC1C(OCc2ccccc2)OC(CO)C(O)C1OCC(=O)N[C@@H](C)C(=O)N[C@H](CCC(=O)NCCNc1ccc([N+](=O)[O-])c2[nH]c3ccccc3c(=O)c12)C(N)=O (some centres undefined)	33.4 µM (inactive)
18. CN(Cc1cnc2nc(N)nc(N)c2n1)c1ccc(C(=O)NC(CCC(=O)NCC(P(=O)(O)O)P(=O)(O)O)C(=O)O)cc1 (centres undefined)	7.16 µM (inactive)
19. COCCCN(Cc1cc(OC)c(OC)c(OC)c1)C(=S)Nc1cccc(Cl)c1	37.7 µM (inactive)

====

# System: UACC-62
# Experiment Description: NCI tumour cell line growth inhibition, 48 h
The source made the active and inactive calls. Rule as the data show it: active = GI50 up to about 1.1 µM and inactive = higher.
Possible outcomes: active, inactive

1) Cc1cccc2cc3c(ccc4ccccc43)c[n+]12	inactive
2) CC(C)(C)OC(=O)N(CCCCNC(=O)OCc1ccccc1)CCCNC(=O)OCc1ccccc1	inactive
3) O=C(O)CNc1ccc(C(=O)O)cc1	inactive
4) O=c1c(Cc2ccccc2)c(O)cc2n1CCC2	inactive
5) O=C(CCc1nnc2s/c(=C\c3ccccc3)c(=O)n12)Nc1cc(Cl)ccc1Cl	inactive
6) Cc1cccc(N2C(=O)C(Cl)=C(Cl)C2=O)c1	inactive
7) Cc1c(N)nc(C(CC(N)=O)NCC(N)C(N)=O)nc1C(=O)NC(C(=O)NC(C)C(O)C(C)C(=O)NC(C(=O)NCCc1nc(-c2nc(C(=O)NCCCNC(C)c3ccccc3)cs2)cs1)C(C)O)C(OC1OC(CO)C(O)C(O)C1OC1OC(CO)C(O)C(OC(N)=O)C1O)c1c[nH]cn1 (centres undefined)	active
8) COc1ccc2[nH]c3c(C)c4ccnc(NCCCN(C)CCCNc5ccc6nnn7c8ccccc8c(=O)c5c67)c4c(C)c3c2c1	inactive
9) COc1cc2c[n+](C)c3c4cc5c(cc4ccc3c2cc1OC)OCO5 [NITIDINE CHLORIDE]	inactive
